- Method: Rat pharmacokinetic studies
- Assay type: in vivo
- Condition summary: plasma, male SD rats, PO 5 mg/kg vs IV 1 mg/kg, dose adjusted AUC
- Protocol: Male SD rats were fasted overnight. […] The plasma was extracted with acetonitrile and the level of compound was analyzed by LC/MS/MS. The level of compound in plasma was calculated from a standard curve in rat plasma. The IV clearance and area under the curve were calculated using WinNonLin software. […]
Mark 1 for reported bioavailability of 20% or greater; mark 0 for anything smaller.

Solved entries (count: 3):
Molecule: O=C(NO)c1cnc(NC2(c3ccccc3)CCC(F)(F)CC2)nc1
Cat: 1

Molecule: O=C(NO)c1cnc(NC2(c3cc(F)cc(F)c3)CCCCC2)nc1
Cat: 0

Molecule: O=C(NO)c1cnc(NC2(c3ccccc3)CC2)nc1 [Compound A, reference compound]
Cat: 0

Enquiry: # bool: bioavailability of `O=C(NO)c1cnc(NC2(c3cc(F)ccc3F)CCOCC2)nc1` >= 20%
Return: 0

Enquiry: Can you check O=C(NO)c1cnc(NC2(c3cccc(F)c3)CCCCC2)nc1 [Compound B, reference compound] next?
Return: 0

* * *

- Method: Mouse pharmacokinetic studies
- Assay type: in vivo
- Condition summary: mouse; male C57BL/6 mice, IV 1 mg/kg, from AUC in plasma and brain; read-out: Mouse plasma/brain ratio
Measurement label: Kp
Please reply with the number alone, leaving off any unit.

Molecule: O=C(NO)c1cnc(NC2(c3cc(F)cc(F)c3)CCCCC2)nc1 [Compound 001]
Kp: 2.55
//
Molecule: O=C(NO)c1cnc(NC2(c3cc(F)ccc3F)CCOCC2)nc1 [Compound 002]
Kp: 0.45

Now for a further molecule.
Enquiry: Can you look up the measured Kp of O=C(NO)c1cnc(NC2(c3ccccc3)CCC(F)(F)CC2)nc1 [Compound 003] for me?
Return: 0.67

* * *

- Method: Rat pharmacokinetic studies
- Format: in vivo
- Condition summary: plasma, male SD rats, IV 1 mg/kg
Each entry below carries its reported clearance.

Compound: O=C(NO)c1cnc(NC2(c3ccccc3)CCC(F)(F)CC2)nc1
clearance: 61.7 mL/min/kg
--
Compound: O=C(NO)c1cnc(NC2(c3cccc(F)c3)CCCCC2)nc1 [Compound B, reference compound]
clearance: 38.3 mL/min/kg

Enquiry: Can you look up the measured clearance of `O=C(NO)c1cnc(NC2(c3cc(F)ccc3F)CCOCC2)nc1` for me?
Return: 93.3 mL/min/kg

Enquiry: Can you check O=C(NO)c1cnc(NC2(c3ccccc3)CC2)nc1 [Compound A, reference compound] next?
Return: 100 mL/min/kg

Enquiry: Can you check `O=C(NO)c1cnc(NC2(c3cc(F)cc(F)c3)CCCCC2)nc1` next?
Return: 91.7 mL/min/kg

* * *

What follows is a record of pIC50 for HDAC1 (Homo sapiens (Human), UniProt Q13547).
Note on pIC50: it is the negative log10 of concentration, concentration in mol/L.

Mol: O=C(NO)c1cnc(NC2(c3ccccc3)CCC(F)(F)CC2)nc1
pIC50: 6.02
//
Mol: O=C(NO)c1cnc(NC2(c3cccc(F)c3)CCC3(CC2)OCCO3)nc1
pIC50: 6.15

Enquiry: Can you look up the measured pIC50 of `O=C(NO)c1cnc(NC2(c3cc(F)ccc3F)CCOCC2)nc1` for me?
Return: 6.93

* * *

- Target or test system: HDAC6 (Homo sapiens (Human), UniProt Q9UBN7)
- Sequence (Q9UBN7 whole entry): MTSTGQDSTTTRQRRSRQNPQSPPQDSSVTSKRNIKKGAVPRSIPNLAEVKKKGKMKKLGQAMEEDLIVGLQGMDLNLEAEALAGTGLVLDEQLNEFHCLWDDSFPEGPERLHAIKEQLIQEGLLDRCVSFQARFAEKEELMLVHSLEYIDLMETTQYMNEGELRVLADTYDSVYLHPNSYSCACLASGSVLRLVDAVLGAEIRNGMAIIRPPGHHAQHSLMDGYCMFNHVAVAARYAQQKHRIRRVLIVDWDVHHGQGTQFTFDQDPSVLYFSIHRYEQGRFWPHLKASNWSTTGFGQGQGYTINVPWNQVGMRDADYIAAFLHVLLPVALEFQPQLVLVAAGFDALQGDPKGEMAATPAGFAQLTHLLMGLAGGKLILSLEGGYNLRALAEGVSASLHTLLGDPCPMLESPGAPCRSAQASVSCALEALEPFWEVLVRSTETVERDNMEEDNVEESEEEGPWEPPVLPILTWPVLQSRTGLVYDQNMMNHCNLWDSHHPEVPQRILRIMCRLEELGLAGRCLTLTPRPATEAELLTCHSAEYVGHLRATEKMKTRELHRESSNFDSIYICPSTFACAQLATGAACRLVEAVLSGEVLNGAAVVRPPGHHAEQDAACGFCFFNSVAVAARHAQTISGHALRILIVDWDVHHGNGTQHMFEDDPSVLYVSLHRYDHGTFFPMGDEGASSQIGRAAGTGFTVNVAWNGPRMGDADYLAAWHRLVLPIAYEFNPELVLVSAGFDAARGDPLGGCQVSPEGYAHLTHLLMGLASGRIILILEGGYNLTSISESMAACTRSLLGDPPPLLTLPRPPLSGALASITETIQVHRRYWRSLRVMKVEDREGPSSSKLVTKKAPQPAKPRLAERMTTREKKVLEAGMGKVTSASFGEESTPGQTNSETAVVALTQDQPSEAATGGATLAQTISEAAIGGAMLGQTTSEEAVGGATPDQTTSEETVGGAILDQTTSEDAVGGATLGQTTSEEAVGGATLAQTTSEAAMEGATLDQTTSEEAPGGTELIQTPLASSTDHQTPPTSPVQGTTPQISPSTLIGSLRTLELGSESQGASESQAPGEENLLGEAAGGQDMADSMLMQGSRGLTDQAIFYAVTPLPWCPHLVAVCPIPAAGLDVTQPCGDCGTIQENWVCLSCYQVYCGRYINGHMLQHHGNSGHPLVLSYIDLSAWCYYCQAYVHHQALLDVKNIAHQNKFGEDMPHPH
Each entry below carries its reported IC50.
Could you give the number and then its unit, please?

Mol: O=C(NO)c1cnc(NC2(c3ccccc3)CCC(F)(F)CC2)nc1
Measurement label: IC50
Result value: 3.7 nM

Enquiry: Can you look up the measured IC50 of `O=C(NO)c1cnc(NC2(c3cc(F)cc(F)c3)CCCCC2)nc1` for me?
Return: 2.9 nM

* * *

What follows is a record of IC50 for HDAC2 (Homo sapiens (Human), UniProt Q92769).
Could you give the number and then its unit, please?

Example results:
Mol: O=C(NO)c1cnc(NC2(c3cccc(F)c3)CCC3(CC2)OCCO3)nc1
Target or test system: HDAC2 (Homo sapiens (Human), UniProt Q92769)
Sequence (Q92769 whole entry): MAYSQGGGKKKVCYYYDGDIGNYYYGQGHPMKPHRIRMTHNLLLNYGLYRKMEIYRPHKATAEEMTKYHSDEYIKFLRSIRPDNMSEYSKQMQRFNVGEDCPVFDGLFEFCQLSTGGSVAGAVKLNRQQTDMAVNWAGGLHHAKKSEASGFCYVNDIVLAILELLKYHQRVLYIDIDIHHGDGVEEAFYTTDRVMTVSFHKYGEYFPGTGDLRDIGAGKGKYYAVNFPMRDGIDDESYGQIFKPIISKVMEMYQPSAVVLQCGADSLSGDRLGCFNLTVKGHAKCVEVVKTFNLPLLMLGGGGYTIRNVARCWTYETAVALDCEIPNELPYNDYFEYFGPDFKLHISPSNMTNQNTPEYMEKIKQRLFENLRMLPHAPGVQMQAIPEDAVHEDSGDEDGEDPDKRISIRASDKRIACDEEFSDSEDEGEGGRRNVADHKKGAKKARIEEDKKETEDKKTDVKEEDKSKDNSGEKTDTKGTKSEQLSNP
IC50: 833 nM
--
Mol: O=C(NO)c1cnc(NC2(c3cc(F)ccc3F)CCOCC2)nc1
Target or test system: HDAC2 (Homo sapiens (Human), UniProt Q92769)
IC50: 108 nM

Now for a further molecule.
Enquiry: Can you look up the measured IC50 of `O=C(NO)c1cnc(NC2(c3ccccc3)CCC(F)(F)CC2)nc1` for me?
Return: 982 nM
